Data origin: ChEMBL document CHEMBL4622992

test: Toxicity in CHO cells assessed as reduction in cell viability incubated for 24 hrs by WST1 assay; assay type: cell-based; details: Chinese hamster (Cricetulus griseus)
Measurement name: log10 of IC50 at 24 h (log10 of the value in µM)
Response schema: value (number) is log10 of IC50 at 24 h in units of µM.

`CC(C)=CCC/C(C)=C\CCC(C)=CCNCCCN(C)CCCN` yielded log10 of IC50 at 24 h of 1.02

`CC(C)=CCC/C(C)=C\CCC(C)=CCNCCCNCCCCNCCCN` yielded log10 of IC50 at 24 h of 2.16

`CC(C)=CCC/C(C)=C\CCC(C)=CCNCCNCCNCCNCCNCCN` yielded log10 of IC50 at 24 h of 1.62

`CC(C)=CCC/C(C)=C\CCC(C)=CCNCCCN` yielded log10 of IC50 at 24 h of 1.51

`CC(C)=CCCC(C)=CCNCCCN(CCCN)CCCN` yielded log10 of IC50 at 24 h of 2.10

`CC(C)=CCC/C(C)=C\CCC(C)=CCNCCCCCCCCCCCCN` yielded log10 of IC50 at 24 h of 1.40

`CC(C)=CCC/C(C)=C\CCC(C)=CCNCCCN1CCCC1` yielded log10 of IC50 at 24 h of 1.93

`CC(C)=CCC/C(C)=C\CCC(C)=CCNCCCCCN` yielded log10 of IC50 at 24 h of 1.58

`CC(C)=CCC/C(C)=C\CCC(C)=CCNCCNCCNCCNCCN` yielded log10 of IC50 at 24 h of 1.64

`CC(C)=CCC/C(C)=C\CCC(C)=CCNCCN` yielded log10 of IC50 at 24 h of 1.51

`CCN(CC)CCCNCCCNCC=C(C)CCC=C(C)C` yielded log10 of IC50 at 24 h of 1.49

`CC(C)=CCC/C(C)=C\CCC(C)=CCNCCCN1CCN(CCCN)CC1` yielded log10 of IC50 at 24 h of 1.53

`CC(C)=CCC/C(C)=C\CCC(C)=CCNCCCNCCCN` yielded log10 of IC50 at 24 h of 1.48

`CC(C)=CCC/C(C)=C\CCC(C)=CCNCCCCN` yielded log10 of IC50 at 24 h of 1.26

`CC(C)=CCC/C(C)=C\CCC(C)=CCNCCCN1CCOCC1` yielded log10 of IC50 at 24 h of 1.76

`CC(C)=CCCC(C)=CCNCCN` yielded log10 of IC50 at 24 h of 1.56

====

tested on: Klebsiella aerogenes; experiment: Potentiation of chloramphenicol-induced antibacterial activity against Enterobacter aerogenes Ea289 assessed as ratio of the chloramphenicol alone MIC to […] in presence of MIC/4 level of compound incubated for 18 hrs; assay type: functional
Where a SMILES comes first, the peptide text is derived from it. The star is where a group is joined. βNA = c1ccc2cc(N*)ccc2c1
Under this convention, Satisfied denotes Ratio strictly below 8 and Not satisfied denotes Ratio at or above 8.

Asked: Consider the molecule `CC(C)=CCC/C(C)=C\CCC(C)=CCNCCCCCN` . Is its Ratio strictly less than 8?
Given back: Not satisfied

Asked: Consider the molecule `CC(C)=CCCC(C)=CCNCCN` . Is its Ratio strictly less than 8?
Given back: Satisfied

Asked: Consider the molecule `CC(C)=CCC/C(C)=C\CCC(C)=CCNCCCN(CCCN)CCCN` . Is its Ratio strictly less than 8?
Given back: Not satisfied

Asked: Consider the molecule `CC(C)=CCCC(C)=CCNCCCN1CCOCC1` . Is its Ratio strictly less than 8?
Given back: Satisfied

Asked: Consider the molecule `CCN(CC)CCCNCCCNCC=C(C)CCC=C(C)C` . Is its Ratio strictly less than 8?
Given back: Not satisfied

Asked: Consider the molecule `CC(C)=CCCC(C)=CCNCCCN(C)CCCN` . Is its Ratio strictly less than 8?
Given back: Not satisfied

Asked: Consider the molecule `CC(C)=CCCC(C)=CCNCCCN1CCCC1` . Is its Ratio strictly less than 8?
Given back: Satisfied

Asked: Consider the molecule N=C(N)NCCC[C@H](NC(=O)[C@@H](N)Cc1ccccc1)C(=O)Nc1ccc2ccccc2c1 [PABETAN] (H-Phe-Arg-βNA) . Is its Ratio strictly less than 8?
Given back: Not satisfied

Asked: Consider the molecule `CC(C)=CCC/C(C)=C\CCC(C)=CCNCCN` . Is its Ratio strictly less than 8?
Given back: Satisfied

Asked: Consider the molecule `CC(C)=CCC/C(C)=C\CCC(C)=CCNCCNCCNCCNCCNCCN` . Is its Ratio strictly less than 8?
Given back: Satisfied

Asked: Consider the molecule `CC(C)=CCC/C(C)=C\CCC(C)=CCNCCCCCCCCCCCCN` . Is its Ratio strictly less than 8?
Given back: Satisfied

Asked: Consider the molecule `CC(C)=CCC/C(C)=C\CCC(C)=CCNCCCCN` . Is its Ratio strictly less than 8?
Given back: Not satisfied

Asked: Consider the molecule `CC(C)=CCC/C(C)=C\CCC(C)=CCNCCCN1CCCC1` . Is its Ratio strictly less than 8?
Given back: Not satisfied

Asked: Consider the molecule `CC(C)=CCCC(C)=CCNCCCN1CCCC1=O` . Is its Ratio strictly less than 8?
Given back: Satisfied

Asked: Consider the molecule `CC(C)=CCC/C(C)=C\CCC(C)=CCNCCCOCCCCOCCCN` . Is its Ratio strictly less than 8?
Given back: Satisfied

Asked: Consider the molecule `CC(C)=CCC/C(C)=C\CCC(C)=CCNCCCNCCCCNCCCN` . Is its Ratio strictly less than 8?
Given back: Not satisfied

Asked: Consider the molecule `CC(C)=CCC/C(C)=C\CCC(C)=CCNCCCN` . Is its Ratio strictly less than 8?
Given back: Not satisfied
